System: MILI (PIWIL2) piRISC loaded with L1MC piRNA (26 nt);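 note: 1 nM active piRISC with 0.1 nM target library at 33 °C single turnover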
Assay: pre-steady-state target cleavage rate (min^-1); guide: L1MC piRNA 5'p-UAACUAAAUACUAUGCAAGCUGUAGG; higher = faster piRNA-guided slicing of the target
Conditions: auxiliary factor: none (no GTSF1)
Output criterion met for pre-steady-state target cleavage rate not less than 0.007; output criterion not met otherwise.

Check this sequence for pre-steady-state target cleavage rate at or above 0.007: `UCCUGGAUGAGCUUGACAUAGUAUUUAGUUA`
criterion not met

Check this sequence for pre-steady-state target cleavage rate at or above 0.007: `UCCUGGUACAGCUUGCAUAGUUUUUAGUUA`
criterion not met

Check this sequence for pre-steady-state target cleavage rate at or above 0.007: `UCCUCCUACAGCUUGGAUAGUAUUAAGUUA`
criterion not met

Check this sequence for pre-steady-state target cleavage rate at or above 0.007: `UCCUGGAUGUGCAUGCAUAGUUUUUAGUUA`
criterion not met

Check this sequence for pre-steady-state target cleavage rate at or above 0.007: `UCCUGGUACAGCUUGAUAGUAUUUAGUUA`
criterion met

Check this sequence for pre-steady-state target cleavage rate at or above 0.007: `UCCUGGAUGUCGAUGCAUACUAUUUUGUUA`
criterion not met

Check this sequence for pre-steady-state target cleavage rate at or above 0.007: `UCCUGGAACAGGUUGCAUUGUAUUUAGUUA`
criterion met

Check this sequence for pre-steady-state target cleavage rate at or above 0.007: `UCCUGGAUGAGCUUGCAUAGUAUUUCAGUUA`
criterion not met

Check this sequence for pre-steady-state target cleavage rate at or above 0.007: `UCCUGGAUGUGCUAGCAUAGUAUUUUGUUA`
criterion not met

Check this sequence for pre-steady-state target cleavage rate at or above 0.007: `UCCUGGUACAGCUUGACAUAGUAUUUAGUUA`
criterion met

Check this sequence for pre-steady-state target cleavage rate at or above 0.007: `UCCUGGUACAGCUUUGCAUAGUAUUUAGUUA`
criterion met

Check this sequence for pre-steady-state target cleavage rate at or above 0.007: `UCCUGGAACAGCUUGCAAAGUAUUUAGUUA`
criterion met

Check this sequence for pre-steady-state target cleavage rate at or above 0.007: `UCCUGGUACAGCGUUGCAUAGUAUUUAGUUA`
criterion met

Check this sequence for pre-steady-state target cleavage rate at or above 0.007: `UCCUGGAUGAGCUUGCAUAGUAUGUUAGUUA`
criterion met

Check this sequence for pre-steady-state target cleavage rate at or above 0.007: `UCCUGGAACAGCUUCCAAAGUAUUUAGUUA`
criterion not met

Check this sequence for pre-steady-state target cleavage rate at or above 0.007: `UCCUGCUACAGCUUGCAUUGUAUUUUGUUA`
criterion not met

Check this sequence for pre-steady-state target cleavage rate at or above 0.007: `UCCUGCUACAGCUUGCAAAGUAUUUAGUAA`
criterion not met

Check this sequence for pre-steady-state target cleavage rate at or above 0.007: `UCCUGGUACAGCUUCGCAUAGUAUUUAGUUA`
criterion met

Check this sequence for pre-steady-state target cleavage rate at or above 0.007: `UCCUGGAACUGCUUGCAUAGUAUUUAGUUA`
criterion not met

Check this sequence for pre-steady-state target cleavage rate at or above 0.007: `UCCUGGAUCAGCUUGGAUAGUAUAUAGUUA`
criterion not met

Check this sequence for pre-steady-state target cleavage rate at or above 0.007: `UCCUGCAACAGCUUGCAUAGUAUUUAGUAA`
criterion met

Check this sequence for pre-steady-state target cleavage rate at or above 0.007: `UCCUGGAUGUCCUUGCAUCGUAUUUAGUUA`
criterion not met

Check this sequence for pre-steady-state target cleavage rate at or above 0.007: `UCCUGGAUGUCGUUGCAUUGUAUUUAGUUA`
criterion not met

Check this sequence for pre-steady-state target cleavage rate at or above 0.007: `UCCUGGUACAGCUUGCAAUCUAUUUAGUUA`
criterion not met

Check this sequence for pre-steady-state target cleavage rate at or above 0.007: `UCCUCCUACAGCUAGCAUAGUAAUUAGUUA`
criterion not met

Check this sequence for pre-steady-state target cleavage rate at or above 0.007: `UCCUGGUUCAGCUUGCUUAGUAUUUAGUUA`
criterion met

Check this sequence for pre-steady-state target cleavage rate at or above 0.007: `UCCUGGUACAGCUUGCACAGUAUUUAGUUA`
criterion met

Check this sequence for pre-steady-state target cleavage rate at or above 0.007: `UCCUGGAUGUCGUUGCAUAGUAGUUUAGUUA`
criterion not met

Check this sequence for pre-steady-state target cleavage rate at or above 0.007: `UCCUGGAUGAGCUUGCAUAGUUAUUUAGUUA`
criterion not met

Check this sequence for pre-steady-state target cleavage rate at or above 0.007: `UCCUCCUACUCGUUGCAUAGUAUUUAGUUA`
criterion met

Check this sequence for pre-steady-state target cleavage rate at or above 0.007: `UCCUGGUUCAGCUUGCAUAGUAUUUUGUUA`
criterion not met

Check this sequence for pre-steady-state target cleavage rate at or above 0.007: `UCCUCCUACUGCUUGCAUACUAUUUAGUUA`
criterion not met

Check this sequence for pre-steady-state target cleavage rate at or above 0.007: `UCCUGGUUCAGCUUGCAAAGUAUUUAGUUA`
criterion met

Check this sequence for pre-steady-state target cleavage rate at or above 0.007: `UCCUGGAUCAGGUUGCAAAGUAUUUAGUUA`
criterion met

Check this sequence for pre-steady-state target cleavage rate at or above 0.007: `UCCUGGAUGUCCUUUCAUAGUAUUUAGUUA`
criterion not met

Check this sequence for pre-steady-state target cleavage rate at or above 0.007: `UCCUGGAUGUCGUUGCAUAAUAUUUAGUUA`
criterion not met

Check this sequence for pre-steady-state target cleavage rate at or above 0.007: `UCCUGGUACAGCUUGGAUAGUAUUAAGUUA`
criterion not met

Check this sequence for pre-steady-state target cleavage rate at or above 0.007: UCCUGCUACAGCUUGCAUAGUAUUUAGUUG [g2:g25:cont:t1G]
criterion met

Check this sequence for pre-steady-state target cleavage rate at or above 0.007: `UCCUGGUACAGGAUGCAUAGUAUUUAGUAA`
criterion not met

Check this sequence for pre-steady-state target cleavage rate at or above 0.007: `UCCUGGAUCAGCUUGCAUUGUAUUUUGUUA`
criterion not met

Check this sequence for pre-steady-state target cleavage rate at or above 0.007: `UCCUGGAUGUCGAAGCAUAGUAUUUGUUA`
criterion not met

Check this sequence for pre-steady-state target cleavage rate at or above 0.007: UCCUGGAUGAGCUUGCUAUCAUAAAUCAAA [g15:g21:cont:t1A]
criterion not met

Check this sequence for pre-steady-state target cleavage rate at or above 0.007: `UCCUGGAUGUGCUUGGAAAGUAUUUAGUUA`
criterion met

Check this sequence for pre-steady-state target cleavage rate at or above 0.007: `UCCUGGAACAGCUUGCAUAGUAUUUAGUAUA`
criterion not met

Check this sequence for pre-steady-state target cleavage rate at or above 0.007: `UCCUGGUACAGCUUGCAUUGAAUUUAGUUA`
criterion not met

Check this sequence for pre-steady-state target cleavage rate at or above 0.007: `UCCUCCUACACGCUUGCAUAGUAUUUAGUUA`
criterion met

Check this sequence for pre-steady-state target cleavage rate at or above 0.007: `UCCUGCUACAGCUUGGAUAGUAUUUUGUUA`
criterion not met

Check this sequence for pre-steady-state target cleavage rate at or above 0.007: `UCCUCCUUCAGCUAGCAUAGUAUUUAGUUA`
criterion not met

Check this sequence for pre-steady-state target cleavage rate at or above 0.007: `UCCUCCUACAGCUUGCAAAGUAUUUACUUA`
criterion not met

Check this sequence for pre-steady-state target cleavage rate at or above 0.007: `UCCUCCAUACAGCUUGCAUAGUAUUUAGUUA`
criterion not met

Check this sequence for pre-steady-state target cleavage rate at or above 0.007: `UCCUGGUACAGCUUGCAUAGUAUUUACGUUA`
criterion not met

Check this sequence for pre-steady-state target cleavage rate at or above 0.007: `UCCUCCUACAGACUUGCAUAGUAUUUAGUUA`
criterion not met

Check this sequence for pre-steady-state target cleavage rate at or above 0.007: `UCCUCACUACAGCUUGCAUAGUAUUUAGUUA`
criterion met

Check this sequence for pre-steady-state target cleavage rate at or above 0.007: `UCCUGGUACAGCUUGCAUAGUAUAUAGUUA`
criterion met

---

Tested on: MILI (PIWIL2) piRISC loaded with piRNA #1 (26 nt);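 note: 1 nM active piRISC with 0.1 nM target library at 33 °C single turnover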
Test: pre-steady-state target cleavage rate (min^-1); guide: piRNA #1 5'p-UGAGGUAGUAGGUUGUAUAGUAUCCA; MIWI and MILI are mouse PIWI proteins and EfPiwi is from a freshwater sponge; tags in brackets are library labels; higher = faster piRNA-guided slicing of the target
Conditions: auxiliary factor: 500 nM mouse GTSF1
Please go through the items and note down their pre-steady-state target cleavage rate.
Respond using a number only.

Please report the recorded pre-steady-state target cleavage rate for `GGAGAGGAAACUAUUCAACCUACUACCUCA` .
0.172

Please report the recorded pre-steady-state target cleavage rate for `GGAGACCUAACUAUACAACCUAGUACCUCA` .
0.016

Please report the recorded pre-steady-state target cleavage rate for `GGAGACCUAUGAUAUCAAGCUACUACCUCA` .
0.00559

Please report the recorded pre-steady-state target cleavage rate for `GGAGACCUUACUAUACAACGUACUACCACA` .
0.0216

Please report the recorded pre-steady-state target cleavage rate for `GGAGUGGAAACUAUACAACCUACUACCACA` .
0.129

Please report the recorded pre-steady-state target cleavage rate for `GGAGAGGAUACUAUACAACCUACUACGUCA` .
0.058

Please report the recorded pre-steady-state target cleavage rate for `GGAGUGGAUAACUAUACAACCUACUACCUCA` .
0.0667

Please report the recorded pre-steady-state target cleavage rate for `GGAGUGGAUACUAUACUACCUACUACCACA` .
0.143

Please report the recorded pre-steady-state target cleavage rate for `GGAGUGGAUACUAUAGUACCUACUACCUCA` .
0.161

Please report the recorded pre-steady-state target cleavage rate for `GGAGACGAUACUAUACAAGCUUCUACCUCA` .
0.0442

Please report the recorded pre-steady-state target cleavage rate for `GGAGACCUAACUUACAACCUACUACCUCA` .
0.0068

Please report the recorded pre-steady-state target cleavage rate for `GGAGACCUAUGAAAACAACCUACAACCUCA` .
0.00529
